Provenance of the data: patent US20250346668A1

Quick reference for Kd among some binders
# subject.of.test: T1, human CD3e/g antigen (ACRO, catalog number CDG-H52W5) (human, UniProt P07766 23-126; P09693 23-116)
# T1 construct: Bought reagent used as the Biacore analyte; also called hCD3e/g
# measurement.notes: SPR (Biacore 8K), antibody captured via anti-human Fc
# Method: The equilibrium dissociation constant of binding of CD3 antibodies to human CD3e/g antigen (purchased from ACRO, catalog number CDG-H52W5) was determined by kinetic binding method using Biacore 8K (GE) system. […]
# unit: nM | format: bare number

Worked set:
CAb007 (antibody, V domains shown, Chimeric: mouse variable regions linked to human light and heavy constant regions; constant regions not specified) VH: QVQLQQSGPELVKPGASVKISCKASGSTFTDNYIHWVKQRPGQGLEWIGWIYPGSVNIKYNEKFKDKATLTADTSSTTAYMQLSSLSSEDSAIYYCARDISRYYFDYWGQGTTLTVSS VL: DIVMSQSPSSLAVSAGERVTMNCKSSQSLLNSRTRKNYLAWYQQKPGQSPKLLIYWASTRESGVPDRFTGSGSGTDFTLTISSVQAEDLAVYYCKQSFILRTFGGGTKLAIK : 12.1
hAb008-16 (antibody, V domains shown, Humanized; constant regions not specified) VH: QVQLVQSGAEVKKPGASVKVSCKASGYTFTDYTVNWVRQAPGQRLEWMGYINPFNSYTKYNQKFKDRVTITRDTSASTAYMELSSLRSEDTAVYYCARSVSTYWGQGTTVTVSS VL: DVVMTQSPLSLPVTLGQPASISCKSSQSLLDSDGKTYLNWFQQRPGQSPRRLIYLVSKLNSGVPDRFSGSGSGTDFTLKISRVEAEDVGVYYCWQGTHFPRTFGGGTKLEIK : 18.6
hAb008-30 (antibody, V domains shown, Humanized; constant regions not specified) VH: QVQLVQSGAEVKKPGASVKVSCKASGYTFTDYTVNWVKQAPGQRLEWIGYINPFNSYTKYNQKFKDRATITADTSASTAYMELSSLRSEDTAVYFCANSVSTYWGQGTTVTVSS VL: DVVMTQSPLSLPVTLGQPASISCKSSQSLLDSDGKTYLNWLQQRPGQSPRRLIQLVSKLNSGVPDRFSGSGSGTDFTLKISRVEAEDVGVFYCWQGTHFPRTFGGGTKLEIK : 20.4

Next, consider the following binder.
Lab book: Kd of hAb001-23 (antibody, V domains shown, Humanized; constant regions not specified) VH: QVQLVQSGAEVKKPGASVKVSCKASGYSFTNYYMHWVRQAPGQRLEWIGWTYPGNNNIKYNEKFKGRVTITADTSASTAYMELSSLRSEDTAVYYCARDGYGYYFFDYWGQGTLVTVSS VL: DIVMTQSPDSLAVSLGERATMSCKSSQSLLNNRTRKNYLAWYQQKPGQPPKLLIYWASTRESGVPDRFSGSGSGTDFTLTISSLQAEDVAVYYCKQSYTLRTFGGGTKLEIK noted as 17.4
